- System: Saccharomyces cerevisiae
- Protocol Text: protein stability index of tFT-peptide fusion (C-terminal peptide) (PSI (0-1 scale)); higher = more stable (slower turnover);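 further: PSI is a weighted mean of sequencing reads over stability bins, variants kept only with over 10 reads, mCherry proximal and sfGFP distal, peptide attached via GGGS linker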
- Protocol Conditions: genetic background: wild type; temperature: 30 C
Test Readout: protein stability index

>  <Record Sequence>
SLSFLRPLLLIF

>  <Numeric Result>
0.102

$$$$
>  <Record Sequence>
RLLPPSPPPPPS

>  <Numeric Result>
0.667

$$$$
>  <Record Sequence>
GDEDVSWLVFMG

>  <Numeric Result>
0.762

$$$$
>  <Record Sequence>
GAFKSRAGGGSG

>  <Numeric Result>
0.621

$$$$
>  <Record Sequence>
GGVLAGEWGAGL

>  <Numeric Result>
0.624

$$$$
>  <Record Sequence>
ARPLPPSLPPPP

>  <Numeric Result>
0.736

$$$$
>  <Record Sequence>
SLPPFPVTSRHP

>  <Numeric Result>
0.691

$$$$
>  <Record Sequence>
SLSGPRCFLHSP

>  <Numeric Result>
0.681

$$$$
>  <Record Sequence>
CLFSVENNNILG

>  <Numeric Result>
0.704

$$$$
>  <Record Sequence>
VCSGSGIGNLFE

>  <Numeric Result>
0.791

$$$$
>  <Record Sequence>
VPASVRRSAPVP

>  <Numeric Result>
0.664

$$$$
>  <Record Sequence>
CLTSSIFSRSFA

>  <Numeric Result>
0.632

$$$$
>  <Record Sequence>
VCVVALCLPHLP

>  <Numeric Result>
0.583

$$$$
>  <Record Sequence>
LSPPPPLALTPS

>  <Numeric Result>
0.709

$$$$
>  <Record Sequence>
SRASPPCSLLSS

>  <Numeric Result>
0.696

$$$$
>  <Record Sequence>
IRRTNRKETRKE

>  <Numeric Result>
0.686

$$$$
>  <Record Sequence>
VLHGGKLFGFVR

>  <Numeric Result>
0.676

$$$$
>  <Record Sequence>
PQDRGICQIIES

>  <Numeric Result>
0.632

$$$$
>  <Record Sequence>
PASLPTPLPLPP

>  <Numeric Result>
0.618

$$$$

---

- Test system: Saccharomyces cerevisiae
- Protocol Text: protein stability index of tFT-peptide fusion (C-terminal peptide) (PSI (0-1 scale)); higher = more stable (slower turnover)
- Protocol Conditions: genetic background: das1 deletion; temperature: 30 C
Please use 1 whenever protein stability index is not below 0.3, and 0 whenever it is.

>  <Record Sequence>
VLSLYWLIISRL

>  <Class>
1

$$$$
>  <Record Sequence>
GCVGLSFCVWVG

>  <Class>
1

$$$$
>  <Record Sequence>
PRTTHTPLLIAS

>  <Class>
1

$$$$
>  <Record Sequence>
LRMMLLVTIILE

>  <Class>
0

$$$$
>  <Record Sequence>
YVGILCTGILTV

>  <Class>
1

$$$$
>  <Record Sequence>
GHSALWQVPRLM

>  <Class>
1

$$$$
>  <Record Sequence>
CLGLFPSLLRLS

>  <Class>
1

$$$$
>  <Record Sequence>
SSCFLLFRVVWR

>  <Class>
0

$$$$
>  <Record Sequence>
VLLLLGGIVCVM

>  <Class>
0

$$$$
>  <Record Sequence>
FVGVLVLCVCRC

>  <Class>
0

$$$$
>  <Record Sequence>
PPPPPPPSSSSL

>  <Class>
1

$$$$
>  <Record Sequence>
LFTVCMIIQMVH

>  <Class>
0

$$$$
>  <Record Sequence>
ICIFWLITGLWL

>  <Class>
1

$$$$
>  <Record Sequence>
VSLIFCLFFLSC

>  <Class>
1

$$$$
>  <Record Sequence>
VKVIILYKIIEV

>  <Class>
1

$$$$
>  <Record Sequence>
RLSTTTTKQFIH

>  <Class>
1

$$$$
>  <Record Sequence>
WDPKISVFVLID

>  <Class>
1

$$$$
>  <Record Sequence>
PPPHPPPATFLS

>  <Class>
1

$$$$
>  <Record Sequence>
VLVVLRSEVSLS

>  <Class>
0

$$$$

Origin of the recorded values: the supplement of paper PMC10724198
